These entries and their values trace back to patent US20210238260.

tgt: plasma purified human antithrombin III (AT-III), in complex with unfractionated heparin (UFH)
protocolSummary: ratio of K0.5 for AT-III/UFH inhibition, variant over Catalyst Biosciences WT FIXa
Property: log10(K0.5-mut/K0.5-wt); scope: individual proteins
measure: log10(K0.5-mut/K0.5-wt) (log10 of the value in fold)

>>> measvalue("FIXa-K247N/N249S/N260S (protein) chain 1: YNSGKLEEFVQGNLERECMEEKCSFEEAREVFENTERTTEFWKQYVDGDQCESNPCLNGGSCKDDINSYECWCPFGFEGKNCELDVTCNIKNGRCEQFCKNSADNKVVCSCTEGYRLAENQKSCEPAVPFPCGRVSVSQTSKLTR chain 2: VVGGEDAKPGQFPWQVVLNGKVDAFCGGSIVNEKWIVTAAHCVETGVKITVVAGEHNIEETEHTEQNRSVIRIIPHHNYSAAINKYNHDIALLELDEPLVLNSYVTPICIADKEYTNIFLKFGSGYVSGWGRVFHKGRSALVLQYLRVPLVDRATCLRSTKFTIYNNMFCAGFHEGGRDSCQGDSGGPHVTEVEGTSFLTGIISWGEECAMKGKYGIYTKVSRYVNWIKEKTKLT")
0.91
>>> measvalue("FIXa-Y155F/K247N/N249S/N260S (protein) chain 1: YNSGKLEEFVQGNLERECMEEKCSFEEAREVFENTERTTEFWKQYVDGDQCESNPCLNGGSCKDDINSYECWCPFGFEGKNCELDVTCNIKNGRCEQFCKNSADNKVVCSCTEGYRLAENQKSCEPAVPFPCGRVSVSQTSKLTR chain 2: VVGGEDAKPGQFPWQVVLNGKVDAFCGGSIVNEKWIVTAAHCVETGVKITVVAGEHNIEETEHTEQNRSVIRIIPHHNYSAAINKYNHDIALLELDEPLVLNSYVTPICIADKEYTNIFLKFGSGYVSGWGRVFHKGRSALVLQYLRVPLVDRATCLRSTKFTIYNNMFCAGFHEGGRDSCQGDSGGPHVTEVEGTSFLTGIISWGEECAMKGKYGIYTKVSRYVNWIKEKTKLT")
0.90
>>> measvalue("FIXa-K247N/N249S/N260S/R318Y/R338E/R403E/E410N (protein) chain 1: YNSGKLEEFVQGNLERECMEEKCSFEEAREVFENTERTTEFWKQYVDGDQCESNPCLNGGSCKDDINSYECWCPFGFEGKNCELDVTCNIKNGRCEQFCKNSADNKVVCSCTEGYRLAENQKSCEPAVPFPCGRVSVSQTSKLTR chain 2: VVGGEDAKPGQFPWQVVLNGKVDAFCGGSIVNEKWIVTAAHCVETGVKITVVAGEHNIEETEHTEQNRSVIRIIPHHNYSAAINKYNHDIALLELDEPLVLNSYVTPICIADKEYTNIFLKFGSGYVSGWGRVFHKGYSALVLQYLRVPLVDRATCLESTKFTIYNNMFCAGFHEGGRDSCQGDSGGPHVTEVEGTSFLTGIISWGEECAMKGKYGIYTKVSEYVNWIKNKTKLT")
2.46
>>> measvalue("FIXa-D104N/K106S/K247N/N249S/N260S (protein) chain 1: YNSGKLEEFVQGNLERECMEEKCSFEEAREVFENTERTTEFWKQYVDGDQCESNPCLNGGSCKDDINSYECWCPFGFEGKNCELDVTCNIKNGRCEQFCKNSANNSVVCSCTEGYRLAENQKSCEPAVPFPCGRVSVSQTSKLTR chain 2: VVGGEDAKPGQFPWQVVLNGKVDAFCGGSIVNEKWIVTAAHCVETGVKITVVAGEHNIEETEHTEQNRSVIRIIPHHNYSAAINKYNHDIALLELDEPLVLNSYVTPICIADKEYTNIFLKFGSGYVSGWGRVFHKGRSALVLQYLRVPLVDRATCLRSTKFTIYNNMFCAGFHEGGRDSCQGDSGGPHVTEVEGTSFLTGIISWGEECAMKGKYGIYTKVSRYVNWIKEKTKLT")
1.81
>>> measvalue("FIXa-D104N/K106S/Y155F/K247N/N249S/N260S (protein) chain 1: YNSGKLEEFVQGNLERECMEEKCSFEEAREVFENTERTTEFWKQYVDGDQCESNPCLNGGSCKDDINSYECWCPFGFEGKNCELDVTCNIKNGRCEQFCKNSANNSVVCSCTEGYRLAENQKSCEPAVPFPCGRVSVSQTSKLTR chain 2: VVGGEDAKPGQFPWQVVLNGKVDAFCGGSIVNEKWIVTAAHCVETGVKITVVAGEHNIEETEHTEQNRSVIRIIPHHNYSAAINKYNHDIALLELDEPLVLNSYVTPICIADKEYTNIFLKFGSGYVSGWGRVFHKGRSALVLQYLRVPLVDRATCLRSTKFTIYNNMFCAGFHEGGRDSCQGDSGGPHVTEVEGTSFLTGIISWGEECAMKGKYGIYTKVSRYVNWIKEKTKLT")
1.55
